Source: the EternaBench riboswitch data

Reported apparent Kd values for a set of sequences
system: MS2 coat protein; experiment: apparent Kd, MS2 coat protein; higher = weaker binding; RNA-MaP array; conditions: designed as: OFF switch for flavin mononucleotide; no ligand
RECORDED METRIC: apparent Kd

# SEQUENCE CONTENT, RECORDED METRIC, MEASURED
data = [
    ("UGAGGUAAGGAGAAGGUCCAACGAUGAAUUUAGGAAGGAUAUCCAACAUGAGGAUCACCCAUGUAAGGGUGCCCGAAGUCAGGA", "apparent Kd", "0.133 µM"),
    ("UACAUGAGGAUCACCCAUGUCAAUUGUAGAUCGCUCAACGGCAGAAGGCGCAACCCGAUCGGGAGCGAGGAUAUGCCUCGUUAA", "apparent Kd", "0.0265 µM"),
    ("CGUGGGUGUGAGCCACAUGAGGAUCACCCAUGUCACAACGUGAGAAGGAACAGGCCCUGUGUCGGUUAGGAUAUCAAACCCUUA", "apparent Kd", "0.142 µM"),
    ("ACCAUGUGACAGGAUAUGUUUCUCUCAAUAAACACAGAAGGGUCUACAUGAGGAUCACCCAUGUGUAUUCUACC", "apparent Kd", "0.0726 µM"),
]
